- testedSystem: 5-HT3 receptor (5-HT3A) (Homo sapiens, UniProt P46098, N123Q)
- Construct: full-length cDNA in pcDNA3.1, transiently expressed in HEK293 cells; homopentamer (also in Xenopus oocytes)
- Sequence (P46098 24-478 N123Q): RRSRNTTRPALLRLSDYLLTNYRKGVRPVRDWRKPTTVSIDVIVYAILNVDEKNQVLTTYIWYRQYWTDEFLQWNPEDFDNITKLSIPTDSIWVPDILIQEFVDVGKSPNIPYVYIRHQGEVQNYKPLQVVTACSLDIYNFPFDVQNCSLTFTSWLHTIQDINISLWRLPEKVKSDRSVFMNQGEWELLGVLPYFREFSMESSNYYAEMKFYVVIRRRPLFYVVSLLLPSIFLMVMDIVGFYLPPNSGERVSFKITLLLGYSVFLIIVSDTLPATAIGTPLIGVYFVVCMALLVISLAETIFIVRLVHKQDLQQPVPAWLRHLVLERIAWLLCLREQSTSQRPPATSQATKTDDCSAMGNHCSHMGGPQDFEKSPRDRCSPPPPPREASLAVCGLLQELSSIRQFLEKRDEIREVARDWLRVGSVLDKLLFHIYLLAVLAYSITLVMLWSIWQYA
- protocolDetails: membrane potential dye fluorescence, FlexStation, transfected HEK293 cells
- setupConditions: read-out: varenicline EC50
parameterMeasured: EC50 (µM)

{"compound": "c1cnc2cc3c(cc2n1)C1CNCC3C1 [varenicline]", "quantitativeReadout": 26}

* * *

- testedSystem: 5-HT3 receptor (5-HT3A) (Homo sapiens)
- Construct: full-length cDNA in pcDNA3.1, transiently expressed in HEK293 cells; homopentamer (also in Xenopus oocytes)
- protocolDetails: membrane potential dye fluorescence, FlexStation, transfected HEK293 cells
- setupConditions: read-out: varenicline EC50

{"molecule": "c1cnc2cc3c(cc2n1)C1CNCC3C1 [varenicline]", "EC50 (nM)": 420}

* * *

- testedSystem: 5-HT3 receptor (5-HT3A) (Homo sapiens, UniProt P46098, W178Y)
- Construct: full-length cDNA in pcDNA3.1, transiently expressed in HEK293 cells; homopentamer (also in Xenopus oocytes)
- Sequence (P46098 24-478 W178Y): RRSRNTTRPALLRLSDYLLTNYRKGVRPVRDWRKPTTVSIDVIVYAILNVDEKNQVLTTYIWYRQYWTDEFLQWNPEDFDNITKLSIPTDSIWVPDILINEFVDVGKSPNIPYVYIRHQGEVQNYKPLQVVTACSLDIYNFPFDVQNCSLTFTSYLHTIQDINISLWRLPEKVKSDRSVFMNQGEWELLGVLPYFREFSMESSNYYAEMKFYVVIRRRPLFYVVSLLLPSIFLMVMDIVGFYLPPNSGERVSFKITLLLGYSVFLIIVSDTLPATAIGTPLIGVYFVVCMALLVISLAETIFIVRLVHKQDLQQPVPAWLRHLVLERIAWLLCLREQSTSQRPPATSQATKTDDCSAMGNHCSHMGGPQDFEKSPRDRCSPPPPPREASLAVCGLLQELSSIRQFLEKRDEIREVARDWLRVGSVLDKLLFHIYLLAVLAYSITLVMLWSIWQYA
- protocolDetails: membrane potential dye fluorescence, FlexStation, transfected HEK293 cells
- setupConditions: read-out: varenicline EC50

{"moleculeSmiles": "c1cnc2cc3c(cc2n1)C1CNCC3C1", "EC50 (µM)": 38}

Reference for the values: paper PMC4505686
